biological target: Btk (Homo sapiens, UniProt Q06187); construct: purified from insect cells as a full-length construct containing a N-terminal 6X-His tag; His6 (N); made in house; host or cells: insect cells (Method C); experiment: Btk in vitro inhibitory activity (one of Method A TR-FRET, Method B electrophoretic mobility shift, Method C radiometric filter binding); format: biochemical; details: wild-type Btk; read-out: Btk-WT IC50
Sequence (Q06187 whole entry): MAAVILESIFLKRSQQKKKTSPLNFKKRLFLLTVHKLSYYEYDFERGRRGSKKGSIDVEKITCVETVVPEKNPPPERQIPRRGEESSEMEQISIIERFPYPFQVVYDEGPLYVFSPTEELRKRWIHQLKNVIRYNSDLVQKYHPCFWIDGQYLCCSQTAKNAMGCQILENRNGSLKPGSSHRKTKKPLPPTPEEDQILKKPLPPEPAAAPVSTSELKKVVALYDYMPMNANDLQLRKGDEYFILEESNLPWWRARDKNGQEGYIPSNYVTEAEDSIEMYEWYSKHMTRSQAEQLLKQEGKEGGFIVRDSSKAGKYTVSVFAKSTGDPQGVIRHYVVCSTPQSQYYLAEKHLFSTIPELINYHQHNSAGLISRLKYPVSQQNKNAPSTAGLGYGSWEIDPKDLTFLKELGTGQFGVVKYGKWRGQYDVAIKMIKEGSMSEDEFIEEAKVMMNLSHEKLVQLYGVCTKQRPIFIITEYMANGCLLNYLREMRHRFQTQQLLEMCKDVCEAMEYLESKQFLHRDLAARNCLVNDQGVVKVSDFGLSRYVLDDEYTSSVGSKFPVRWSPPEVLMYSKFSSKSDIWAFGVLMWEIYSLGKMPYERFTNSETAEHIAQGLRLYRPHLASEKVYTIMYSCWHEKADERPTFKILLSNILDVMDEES
quantity measured: IC50 (nM)
Please give a number only; it is taken to be in nM.

C=CC(=O)N1CC[C@@H](Nc2n[nH]c3nccc(-c4ccc([C@H](C)NC(=O)c5noc(C(C)(C)C)n5)c(F)c4)c23)C1    1.05

Exercise: Can you share its IC50? I mean this molecule: `CC(=O)N[C@@H]1CCN(c2n[nH]c3nccc(-c4ccc(CNC(=O)c5cc(C(C)C)no5)c(F)c4)c23)C1`
Solution: 7.43

Exercise: Next record, please: `CN(Cc1ccc(-c2ccnc3[nH]nc(N4CC[C@@H](N)C4)c23)cc1F)C(=O)c1nc(C(C)(C)C)no1`
Solution: 1.43

Exercise: Next record, please: `C[C@@H](NC(=O)c1nc(C(C)(C)C)no1)c1ccc(-c2ccnc3[nH]nc(N4CCNCC4)c23)cc1`
Solution: 4.24

Exercise: Next record, please: `CC(=O)N1C[C@H](Nc2n[nH]c3nccc(-c4ccc(CNC(=O)c5noc(C(C)(C)C)n5)c(F)c4)c23)CC[C@@H]1C`
Solution: 0.383
